Origin of values: PubChem BioAssay AID778

Molecular target: Cytochrome P450 2C19 (Homo sapiens)
Assay: blockers of cytochrome P450 2C19 activity – biochemical, luminescence, ADME assay, primary screen (AID 778);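 note: plate controls were negative control wells for no effect and 2.5 mM tranylcypromine positive control for full effect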
Conditions: CYP2C19 Supersomes, luciferin-H EGE luminescence, 30 min; at 5 µM
The campaign covered roughly 96,000 compounds. About 20,000 (21%) were called active.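 Rule for the calls: active = CYP2C19 inhibition above a set limit at 5 µM in the primary screen (cut at about 50% in these data); inactive = the rest.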 Not all results are given here.
Answer with one of the outcomes TRUE for active, FALSE for inactive

Qu. // return assay outcome for Cn1c(C(=O)OC(C(=O)NC2CCCCC2)c2ccccn2)cc2sccc21 (stereo unspecified)
Ans. TRUE

Qu. // return assay outcome for CCOc1ccc(CNC(=O)C2CCC(=O)N2C2CCCC2)cc1OC (stereo unspecified)
Ans. FALSE

Qu. // return assay outcome for `CC(C)c1nc2oc3c(N4CCN(C)CC4)ncnc3c2c2c1CCC2`
Ans. FALSE

Qu. // return assay outcome for `Cc1cc(=O)oc(C)c1C(=O)N1CCCCC1`
Ans. FALSE

Qu. // return assay outcome for `CCCN(CCC)CCNC(=O)c1cc2c(C)nc3ccccc3c2o1`
Ans. FALSE

Qu. // return assay outcome for `O=C(OCN1C(=O)c2ccccc2C1=O)/C(=C\c1ccco1)NC(=O)c1ccccc1`
Ans. FALSE

Qu. // return assay outcome for CCCC(C(=O)NCc1ccco1)N(C(=O)CNS(=O)(=O)c1ccccc1)C1CCCC1 (stereo unspecified)
Ans. TRUE

Qu. // return assay outcome for O=C(NC1CCC(O)CC1)c1ccc(S(=O)(=O)NCc2ccco2)cc1 (stereo unspecified)
Ans. FALSE

Qu. // return assay outcome for CSCCC(NC(=O)C1CCC(C)CC1)C(=O)NCc1ccco1 (stereo unspecified)
Ans. FALSE

Qu. // return assay outcome for `Cc1ccccc1OCc1nnc(SCC(=O)N2c3ccccc3Sc3ccc(Cl)cc32)o1`
Ans. FALSE

Qu. // return assay outcome for `O=S(=O)(c1cnccc1N1CCN(/N=C/c2ccc(Br)cc2)CC1)N1CCCCC1`
Ans. FALSE

###

Can you tell me inhibition for the items I'm about to list?
Biological target: Cytochrome P450 2C19 (Homo sapiens)
Experiment: blockers of cytochrome P450 2C19 activity – biochemical, luminescence, ADME assay, primary screen (AID 778);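 note: plate controls were negative control wells for no effect and 2.5 mM tranylcypromine positive control for full effect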
Details: CYP2C19 Supersomes, luciferin-H EGE luminescence, 30 min; at 5 µM; stronger effect = higher value
About 20,000 (21%) of roughly 96,000 compounds were called active. The list is a sample of the results.
Quick note: give the figure in %, leave out the unit.

Qu. Query the reported inhibition for Cytochrome P450 2C19 (Homo sapiens); item: `O/N=C1\CC2(Cc3nonc31)OCCO2`
Ans. -5.4

Qu. Query the reported inhibition for Cytochrome P450 2C19 (Homo sapiens); item: `CCOC(=O)C1CCN(C(=O)CSc2cc(=O)n(C)c3ccccc23)CC1`
Ans. 2.4

Qu. Query the reported inhibition for Cytochrome P450 2C19 (Homo sapiens); item: CCC(C)NC(=O)CSC1=Nc2ccccc2C2=NC(CCC(=O)NCc3ccco3)C(=O)N12 (stereo unspecified)
Ans. 6.1

Qu. Query the reported inhibition for Cytochrome P450 2C19 (Homo sapiens); item: `O=C(COC(=O)c1ccccc1NC(=O)c1ccco1)Nc1ccc2c(c1)OC(F)(F)O2`
Ans. 57.4

Qu. Query the reported inhibition for Cytochrome P450 2C19 (Homo sapiens); item: `CCOC(=O)C1CCN(C(=O)Cc2c(C(=O)O)[nH]c3ccccc23)CC1`
Ans. 2.6

Qu. Query the reported inhibition for Cytochrome P450 2C19 (Homo sapiens); item: `COc1ccccc1C(=O)Nc1ccc(NC(=O)c2ccco2)c(C)c1`
Ans. 45.5
